assay: growth suppression of PTEN-deleted HCT116, pilot screen, cell-based, HCT116 clonal line, CellTiter-Glo (AID 824); conditions: 60 h, at 10 µM, active compounds read low;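 further: 0% = 20 µM Hyamine control and 100% = vehicle cell control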
Results filed as inconclusive are left out.
measured_quantity: viability (%)

* CCOC(=O)C1C(=O)NC(SC)=C(C#N)C1c1ccccc1F (stereo not drawn) | 95.5
* CCOC(=O)c1csc(NC(=O)C(C)(C)C)n1 | 98.8
* CC1=CC(C)(C)N(C(=O)CSc2nccn2C)c2cc(C)ccc21 | 84
* CC(C)(C)c1ccc(-c2cc(N)n[nH]2)cc1 | 90.1
* Cc1oc(-c2ccccc2)nc1CS(=O)CC(=O)N1CCc2ccccc2C1 (stereo not drawn) | 99.8
* O=C(NC1CCCC1)C1C2C=CC3(CN(Cc4cccs4)C(=O)C13)O2 (stereo not drawn) | 101
* CCOCCCNC(=O)C(c1ccc(Cl)cc1)N1CCN(c2ccccc2)CC1 (stereo not drawn) | 85
* O=C(c1cc(-c2ccc(Cl)c(Cl)c2)on1)N1CCCC1 | 102
* O=C(Cn1cc2c(n1)CCCC2)NCc1cccnc1 | 101
* CCS(=O)(=O)NCC(c1cccnc1)N1CCN(c2ccccc2OC)CC1 (stereo not drawn) | 105
* CCC(=O)N1c2ccccc2-c2nnc(SC)nc2OC1c1ccc(N(C)C)cc1 (stereo not drawn) | 91.5
* O=C1CCCCCN1Cc1nnc(SCc2nc3ccccc3s2)n1-c1ccccn1 | 95
* Cc1csc2nc(CNS(=O)(=O)N(C)C)cn12 | 99.1
* CCOC(=O)N1CCc2c(sc(NC(C)=O)c2C(N)=O)C1 | 99.3
* COC(=O)c1ccccc1N(Cc1ccccc1)S(C)(=O)=O | 105
* Oc1ccccc1-c1nnc(COc2ccccc2)o1 | 75.5
* Cc1cccc(-n2ncc3c(N4CCOCC4)ncnc32)c1 | 90.5
* CN(C)c1nc(Oc2ccc(C(=O)OCC(=O)Nc3ccccc3)cc2)nc(N(C)C)n1 | 94.3
* O=C(CS(=O)(=O)c1cn(Cc2ccccc2Cl)c2ccccc12)N1CCOCC1 | 76
* CCOC(=O)N1CCN(c2c(NCc3ccccn3)c(=O)c2=O)CC1 | 96
* O=C1NC(c2cccs2)C(C(=O)c2ccccc2)C(O)(C(F)(F)F)N1 (stereo not drawn) | 90.4
* Cn1c(=O)c2c(SCC(=O)N3CCN(c4ccccc4)CC3)nc(C3CC3)nc2n(C)c1=O | 79.8
* c1coc(C2Nc3ccccc3-c3nc4ccccc4n32)c1 (stereo not drawn) | 68.1

----------
assay: RAM signaling pathway blockade in yeast – S. cerevisiae, Pdr1DBD-CYC8 efflux-inhibited sensitized strain, primary screen (AID 1298);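 further: 0% = DMSO untreated cells without growth and 100% = 10 µM 1-NA-PP1 full growth; higher means more yeast growth rescued from 5-FOA killing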; conditions: S. cerevisiae cbk1-as DSE1-URA3 strain, 5-FOA growth OD615, 2 d; at 50 µM; active compounds read high
Active and inactive are the calls of the source.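 Rule for the calls: active = RAM network inhibition above 8.4% in each of two replicates, 3 SD over the compound average; inconclusive = above 8.4% inhibition in only one replicate; inactive = 8.4% inhibition or less in each replicate.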
measured_quantity: RAM network inhibition

• COc1ccc(-n2c(Cn3c(=O)sc4ccccc43)nnc2SCC(=O)N2CCOCC2)cc1 = 1.66% (inactive)
• COc1ccc(NC(=O)Nc2cccc(OC)c2)cc1 = 1.14% (inactive)
• O=c1oc(-c2cc3ccccc3o2)nc2sc3c(c12)CCCC3 = 4.52% (inactive)
• CCc1ccc(S(=O)(=O)NCc2csc(-c3cccnc3)n2)s1 = 2.28% (inactive)
• CN(CCNC(=O)C1(O)c2ccccc2NC(=O)N1c1ccccc1)Cc1ccccc1 (stereo unspecified) = 2.02% (inactive)
• O=C(NCCCN1CCN(c2ccccc2F)CC1)C1CCC(=O)N1C1CCCC1 (stereo unspecified) = 5.85% (inactive)
• CCOc1ccccc1NC(=O)C1Cc2ccccc2CN1S(C)(=O)=O (stereo unspecified) = 3% (inactive)
• CC1(C(=O)NC2CCCCC2)CCC(=O)N1Cc1cccnc1 (stereo unspecified) = 0.89% (inactive)
• CCN(CC)c1ccc(C=Nc2ccc(C#N)cc2)c(O)c1 = 5.13% (inactive)
• COc1ccc(CCNC(=O)c2cc3ccccn3n2)c(OC)c1OC = -0.2% (inactive)
• CS(=O)(=O)N(CC(=O)NCc1ccco1)c1cc(C(F)(F)F)ccc1Cl = 2.65% (inactive)

Value source: PubChem BioAssay
